Measured IC50, listed per entry.
Molecular target: NRAS WT (Homo sapiens, UniProt P01111+P62937)
Sequence (P01111 whole entry): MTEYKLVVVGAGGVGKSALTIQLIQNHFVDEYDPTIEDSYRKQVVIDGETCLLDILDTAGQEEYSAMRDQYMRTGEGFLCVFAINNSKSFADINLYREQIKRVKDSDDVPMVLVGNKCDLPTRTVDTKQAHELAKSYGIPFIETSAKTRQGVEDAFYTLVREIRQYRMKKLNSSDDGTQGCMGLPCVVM
Sequence (P62937 whole entry): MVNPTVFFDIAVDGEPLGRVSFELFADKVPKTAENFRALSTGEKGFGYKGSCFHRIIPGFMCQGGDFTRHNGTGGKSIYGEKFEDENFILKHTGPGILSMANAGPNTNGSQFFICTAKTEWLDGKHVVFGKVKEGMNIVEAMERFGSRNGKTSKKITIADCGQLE
Experiment: Ras-Raf disruption / FRET / MOA assay (BRAF RBD)
Format: biochemical
Details: NRAS WT; read-out: NRAS WT FRET data IC50

These recorded examples may help you get a feel for the data.
- CCn1c(-c2cccnc2[C@H](C)OC)c2c3cc(ccc31)-c1cc(O)cc(c1)C[C@H](NC(=O)[C@H](C1CCCC1)N1CC[C@]3(CCN(C(=O)[C@@H]4N[C@@H]4C4CC4)C3)C1=O)C(=O)N1CCC[C@H](N1)C(=O)OCC(C)(C)C2 [Example 214]: 10 to 100 nM
- CCn1c(-c2cccnc2[C@H](C)OC)c2c3cc(ccc31)-c1csc(n1)C[C@H](NC(=O)[C@H](C(C)C)N(C)C(=O)N(C)[C@H]1CCN(C(=O)[C@H]3CN3)C1)C(=O)N1CCC[C@H](N1)C(=O)OCC(C)(C)C2 (atropisomer, axis not shown) [Example 296]: 100 to 1000 nM
- CCn1c(-c2cccnc2[C@H](C)OC)c2c3cc(ccc31)-c1csc(n1)C[C@H](NC(=O)[C@H](C(C)C)N(C)C(=O)N1CC(N(C)C(=O)[C@H]3CN3)C1)C(=O)N1CCC[C@H](N1)C(=O)OCC(C)(C)C2 [Example 218]: 100 to 1000 nM

Query string: Tell me the measured IC50 of CCn1c(-c2cccnc2[C@H](C)OC)c2c3cc(ccc31)-c1cc(O)cc(c1)C[C@H](NC(=O)[C@H](C(C)C)N(C)C(=O)[C@@H]1CCCN(C(=O)[C@@H]3CN3)C1)C(=O)N1CCC[C@H](N1)C(=O)OCC(C)(C)C2 [Example 238] , please.
Result string: 10 to 100 nM

Query string: Tell me the measured IC50 of CCn1c(-c2cccnc2[C@H](C)OC)c2c3cc(ccc31)-c1cc(O)cc(c1)C[C@H](NC(=O)[C@H](C(C)C)N(C)C(=O)[C@H]1CCN(C(=O)[C@H]3CN3)[C@H]1C)C(=O)N1CCC[C@H](N1)C(=O)OCC(C)(C)C2 (atropisomer, axis not shown) [Example 206] , please.
Result string: 100 to 1000 nM

Query string: Tell me the measured IC50 of CCn1c(-c2cccnc2[C@H](C)OC)c2c3cc(ccc31)-c1cc(O)cc(c1)C[C@H](NC(=O)[C@H](C(C)C)N(C)C(=O)[C@H]1C[C@H]3CC[C@@H](C1)N3C(=O)[C@@H]1CN1)C(=O)N1CCC[C@H](N1)C(=O)OCC(C)(C)C2 (atropisomer, axis not shown) [Example 246] , please.
Result string: 10 to 100 nM

Query string: Tell me the measured IC50 of CCn1c(-c2cccnc2[C@H](C)OC)c2c3cc(ccc31)-c1cc(O)cc(c1)C[C@H](NC(=O)[C@H](C(C)C)N(C)C(=O)[C@H]1CCN(C(=O)C3OC3c3ccccc3)C1)C(=O)N1CCC[C@H](N1)C(=O)OCC(C)(C)C2 (stereo partly drawn) [Example 331] , please.
Result string: 10 to 100 nM

Query string: Tell me the measured IC50 of CCn1c(-c2cccnc2[C@H](C)OC)c2c3cc(ccc31)-c1cc(O)cc(c1)C[C@H](NC(=O)[C@H](C(C)C)N(C)C(=O)[C@H]1CCN(C(=O)C3CO3)C1)C(=O)N1CCC[C@H](N1)C(=O)OCC(C)(C)C2 (stereo partly drawn) [Example 330] , please.
Result string: 10 to 100 nM

Query string: Tell me the measured IC50 of CCn1c(-c2cccnc2[C@H](C)OC)c2c3cc(ccc31)-c1cc(O)cc(c1)C[C@H](NC(=O)[C@H](C(C)C)N(C)C(=O)N1CC[C@@H](N(C)C(=O)[C@H]3CN3)C1)C(=O)N1CCC[C@H](N1)C(=O)OCC(C)(C)C2 (atropisomer, axis not shown) [Example 252] , please.
Result string: 10 to 100 nM
